Consider the following sequences and their measured self-splicing fitness (ln) readings.
# experimentalDetails: self-splicing fitness, log relative to wild type (ln ratio); higher = more splicing; Tetrahymena group I intron in knt gene, E. coli kanamycin selection, DiMSum; sequences stand for … in CUCUCU…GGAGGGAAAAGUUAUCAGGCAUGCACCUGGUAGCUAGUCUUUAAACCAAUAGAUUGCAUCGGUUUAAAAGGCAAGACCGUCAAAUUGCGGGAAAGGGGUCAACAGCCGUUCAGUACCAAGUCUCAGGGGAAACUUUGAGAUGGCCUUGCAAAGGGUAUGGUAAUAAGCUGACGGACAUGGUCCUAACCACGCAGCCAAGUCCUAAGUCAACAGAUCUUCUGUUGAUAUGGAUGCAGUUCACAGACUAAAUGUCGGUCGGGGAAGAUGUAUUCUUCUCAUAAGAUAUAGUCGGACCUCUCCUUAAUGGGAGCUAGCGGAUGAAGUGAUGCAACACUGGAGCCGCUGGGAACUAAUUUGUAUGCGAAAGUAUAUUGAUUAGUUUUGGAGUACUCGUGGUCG;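 also: selection with 25 µg/mL kanamycin versus none on LB agar overnight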
# measurementConditions: 37 °C
observationType: self-splicing fitness (ln)

# polymerSequence, endpointValue
measured = [
    ("AUUUAGCAAUAUUACGCGCC", -0.828),
    ("AUACAGCAAUAUUACGUCAG", -1.23),
    ("CGGUAGCAAUAUUACGAGUG", 0.142),
    ("CCCAAGCAAUAUUACGAGUU", -2.68),
    ("GGCGAGCAAUAUUACGCCAG", -2.71),
    ("CUACAGCAAUAUUACGUCAG", -1.18),
    ("ACGGAGCAAUAUUACGAAGA", -0.799),
    ("ACAUAGCAAUAUUACGUAGU", -2.32),
    ("GCCGAGCAAUAUUACGUAUA", -1.87),
    ("UGCUAGCAAUAUUACGUGCC", -0.724),
    ("CAUGAGCAAUAUUACGUUCA", -2.29),
    ("CGCUAGCAAUAUUACGGCCC", 0.036),
    ("GUUAAGCAAUAUUACGUCCU", 0.0564),
    ("UAAGAGCAAUAUUACGCGCC", -1.6),
    ("CCUUAGCAAUAUUACGCCAA", -0.755),
    ("GGGAAGCAAUAUUACGACAG", -3),
    ("GCCCAGCAAUAUUACGCCGA", -1.2),
    ("CAUCAGCAAUAUUACGGCGA", -1.27),
    ("UCUGAGCAAUAUUACGGAGA", -0.963),
    ("CUUAAGCAAUAUUACGUAGG", -1.35),
    ("UAGCAGCAAUAUUACGGUUU", -0.354),
    ("UGCAAGCAAUAUUACGAGUA", 0.181),
    ("CGAAAGCAAUAUUACGAGUU", -2.21),
    ("GCAGAGCAAUAUUACGGGAA", -1.96),
    ("UUUGAGCAAUAUUACGGGGU", -2.11),
    ("UCAUAGCAAUAUUACGUGGC", -2.73),
    ("AUCCAGCAAUAUUACGCCAC", -2.5),
    ("UGCAAGCAAUAUUACGGAAU", -2.45),
    ("AAAAAGCAAUAUUACGGUAG", -1.45),
    ("AGCAAGCAAUAUUACGAUUA", -0.818),
    ("AAGGAGCAAUAUUACGGUCA", -2.26),
    ("AAAAAGCAAUAUUACGGGGG", -2.76),
    ("AAGCAGCAAUAUUACGUCGU", -0.636),
    ("GGAAAGCAAUAUUACGGCAU", -0.672),
]
